biological target: LPAR3; assay: pooled miR-30 sensor sort-seq; sequence = guide strand; details: shRNA; note: reference of the scale not given here
readout: sensor-assay potency score (higher = more potent)
Numbers only.

I have 6 sequences here; please give me sensor-assay potency score (higher = more potent) for each one.
1. TTCCTCTTGACGTACACGTAGA
2. TAAGACAGTCATCACCGTCTTC
3. TTCCTGTCCAGTCATCGACAGT
4. TTCTGTTTTTGATCACTGCCGC
5. TTGGCTAATACTATCCTCTATG
6. TTGACGTACACGTAGATCCGCA

-0.848
-0.295
-1.5
-0.331
-0.824
0.439

---

molecular target: EPHA8; test: pooled miR-30 sensor sort-seq; sequence = guide strand; details: shRNA
readout: sensor-assay potency score (higher = more potent)
Answers are plain numbers.

Solved cases below.
# get_value(readout='sensor-assay potency score (higher = more potent)', item= TTGACGGATCACCACCACCTGG ) -1.47

# get_value(readout='sensor-assay potency score (higher = more potent)', item= TTTGAGGAACTGGCTTTCTTGT ) -1.09

# get_value(readout='sensor-assay potency score (higher = more potent)', item= TAGCTGAGGTCACAGTGGCAGG ) -1.64

I have 2 sequences here; please give me sensor-assay potency score (higher = more potent) for each one.
1. TTTCCCGGTCTCCACCTCCATG
2. TTGTCCTTCTCGTAGTACTTGA

1. -1.71
2. -0.781

---

target: LITAF; assay: pooled miR-30 sensor sort-seq; sequence = guide strand; settings: shRNA
readout: sensor-assay potency score (higher = more potent)
Answers are plain numbers.

# get_value(readout='sensor-assay potency score (higher = more potent)', item= TAATGGTCCACGTCCTGCAGGG ) -0.698

# get_value(readout='sensor-assay potency score (higher = more potent)', item= TAATTGGATTGTTATTGGGGAT ) -0.833

# get_value(readout='sensor-assay potency score (higher = more potent)', item= ACAGTAATGGTCCACGTCCTGC ) -1.32

# get_value(readout='sensor-assay potency score (higher = more potent)', item= TTGCAGGAAGGACAACACATTT ) -1.76

I have 2 sequences here; please give me sensor-assay potency score (higher = more potent) for each one.
1. ATAACTGTTAACAGCCACTGTC
2. TAACTGTTAACAGCCACTGTCT

1: -0.861; 2: -0.461

---

target: TAC4; assay: pooled miR-30 sensor sort-seq; sequence = guide strand; details: shRNA
readout: sensor-assay potency score (higher = more potent)

# get_value(readout='sensor-assay potency score (higher = more potent)', item= TTTTTTTCTCCTTGGCTGGATC ) -1.14

I have 5 sequences here; please give me sensor-assay potency score (higher = more potent) for each one.
1. TCTCTGCCTTTTTTTCTCCTTG
2. TGCAGCTGGAGCTGAATGCTGG
3. TATGCTTTTTTTCTCCTTGGCT
4. TGCTTTTTTTCTCCTTGGCTGG
5. TGCTTCAGTGCTGAGTGTCTGT

[-0.948, -1.1, -0.257, -1.36, -0.405]

---

molecular target: FKBP10; test: pooled miR-30 sensor sort-seq; sequence = guide strand; conditions: shRNA
Answer each item with its documented sensor-assay potency score (higher = more potent).
Answers are plain numbers.

Solved cases below.
Form field: sensor-assay potency score (higher = more potent) recorded for TTCCTTGTTCCACACATCCAGC with FKBP10 (enter value) -1.14

Form field: sensor-assay potency score (higher = more potent) recorded for TTGATCAGCCAACCAGAGCCGA with FKBP10 (enter value) -0.877

Form field: sensor-assay potency score (higher = more potent) recorded for TAGCTTGAATCAAACTTCTTGC with FKBP10 (enter value) 0.0257

I have 3 sequences here; please give me sensor-assay potency score (higher = more potent) for each one.
1. TAATCTTCCTTCTCTCTCCAGG
2. TATGGTTTTCTCAGGGTCCTGC
3. TTGAAGATTAGCACGGCAGAGC

-0.239
0.0683
-0.871

I have 2 sequences here; please give me sensor-assay potency score (higher = more potent) for each one.
1. TAGCTGGACAGCGTCCTTCGGG
2. TCGTCGACTGTGATCTTGCCGT

-1.26
-0.799
